- experimental.protocol: Single dose oral PK study in male Sprague Dawley rats (plasma by LC-MS/MS)
- Type: in vivo
- run.conditions: male, Sprague Dawley, rat, in vivo; oral 5 mg/kg [equivalent to PRX-002 (−)], analyte: prodrug in plasma, mean; read-out: Oral PK Parameters Tmax, Prodrug
- Method: We describe here PK results of prodrugs of PRX-002 (−) or (+) isomers. All doses of prodrugs were administered such that they were equivalent to 5 mg/kg of PRX-002 (−) or (+) for oral studies and 2 mg/kg PRX-002 (−) or (+) for intravenous studies in male Sprague-Dawley (MSD) rats. Higher doses of up to 10 or 15 mg/kg [again equivalent to PRX-002 (−)] were used in some studies (as specified)]. Formulation preparation, dose administration and time of sample collection was as follows. […]
Let's look at some compounds and their measured Tmax.

compound	Tmax
CCN(C(=O)[C@@H](NC(=O)[C@@H](N)C(C)C)C(C)C)C1C2CCC(C2)C1c1ccccc1 (single isomer, unassigned) [PRX-P6-011]	8.4 min
CCCCCCCCCC(=O)OCOC(=O)N(CC)C1C2CCC(C2)C1c1ccccc1 (single isomer, unassigned) [PRX-P4-002]	0 min
CCN(C(=O)[C@@H](N)CCCCN)C1C2CCC(C2)C1c1ccccc1 (stereo partly shown) [PRX-P1-005]	30 min
CCCCCCCCCCCCCCCCCC(=O)OC(C)OC(=O)N(CC)C1C2CCC(C2)C1c1ccccc1 (single isomer, unassigned) [PRX-P5-006]	0 min
CCN(C(=O)[C@@H](N)Cc1ccccc1)C1C2CCC(C2)C1c1ccccc1 (stereo partly shown) [PRX-P1-013]	42 min
CCCCCCCCCCCCCCCCCC(=O)OCOC(=O)N(CC)C1C2CCC(C2)C1c1ccccc1 (single isomer, unassigned) [PRX-P4-003]	0 min
CCCCCCCCCC(=O)OC(C)OC(=O)N(CC)C1C2CCC(C2)C1c1ccccc1 (single isomer, unassigned) [PRX-P5-002]	0 min

====

- experimental.protocol: Single dose intravenous PK study in male Sprague Dawley rats (plasma by LC-MS/MS)
- Format: in vivo
- run.conditions: male, Sprague-Dawley, rat, plasma, iv, 2 mg/kg, PRX-P5-006 IV 2 mg/kg, mean; read-out: MRTlast of PRX-P5-006
metric.name: MRT last (h)

compound	result.number
CCCCCCCCCCCCCCCCCC(=O)OC(C)OC(=O)N(CC)C1C2CCC(C2)C1c1ccccc1 (single isomer, unassigned)	2.31

====

- experimental.protocol: Single dose intravenous PK study in male Sprague Dawley rats (plasma by LC-MS/MS)
- Assay type: in vivo
- run.conditions: male, Sprague-Dawley, rat, plasma, iv, 2 mg/kg, PRX-P5-006 IV 2 mg/kg b.w., individual animals; read-out: AUClast of PRX-P5-006
metric.name: AUC(0-t) (ng·h/mL)

compound	metric.name	result.number
CCCCCCCCCCCCCCCCCC(=O)OC(C)OC(=O)N(CC)C1C2CCC(C2)C1c1ccccc1 (single isomer, unassigned) [PRX-P5-006]	AUC(0-t)	5300

====

- experimental.protocol: Single dose intravenous PK study in male Sprague Dawley rats (plasma by LC-MS/MS)
- Format: in vivo
- run.conditions: male, Sprague-Dawley, rat, plasma, iv, 2 mg/kg, PRX-P5-011 IV 2 mg/kg b.w., 6.00 h, individual animals
metric.name: concentration at 6 h (ng/mL)

molecule	metric.name	units	result.number
CCCCCCCCCCCCCCCCCC(=O)OC(C)OC(=O)N(CC)C1C2CCC(C2)C1c1ccccc1 (single isomer, unassigned)	concentration at 6 h	ng/mL	0
